B1: PTPRD (parent)
chain: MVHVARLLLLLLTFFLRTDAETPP

Variants of: B1
Experiment: protein stability index of a GFP-peptide fusion (GPS, HEK-293T) (PSI 1-6); higher = more stable;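 also: lentivirally expressed fusions sorted by FACS into six bins by GFP to DsRed ratio, PSI derived from sequencing read proportions per bin multiplied by bin number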
Details: c terminus: a fixed tail appended
Provide the reported protein stability index of each item.
Reply: number alone, nothing else.

Query: Return protein stability index for the following variant: `L9A`
Reply: 2.04

Query: Return protein stability index for the following variant: `E21F`
Reply: 3.22

Query: Return protein stability index for the following variant: `V4I`
Reply: 1.41

Query: Return protein stability index for the following variant: `L10P`
Reply: 3.02

Query: Return protein stability index for the following variant: `T18H`
Reply: 2.3

Query: Return protein stability index for the following variant: `E21C`
Reply: 2.82

Query: Return protein stability index for the following variant: `L10W`
Reply: 1.93

Query: Return protein stability index for the following variant: `T13K`
Reply: 2.03

Query: Return protein stability index for the following variant: `M1Y`
Reply: 3.9

Query: Return protein stability index for the following variant: `A20H`
Reply: 3.11

Query: Return protein stability index for the following variant: `E21V`
Reply: 2.83

Query: Return protein stability index for the following variant: `R17F`
Reply: 2.87

Query: Return protein stability index for the following variant: `D19K`
Reply: 2.29

Query: Return protein stability index for the following variant: `L9S`
Reply: 2.29

Query: Return protein stability index for the following variant: `L16F`
Reply: 1.37

Query: Return protein stability index for the following variant: `R17Y`
Reply: 2.3

Query: Return protein stability index for the following variant: `T18D`
Reply: 2.18

Query: Return protein stability index for the following variant: `L8C`
Reply: 1.89

Query: Return protein stability index for the following variant: `L11V`
Reply: 1.84

Query: Return protein stability index for the following variant: `L16Y`
Reply: 1.52

Query: Return protein stability index for the following variant: `L11K`
Reply: 1.69

Query: Return protein stability index for the following variant: `L16E`
Reply: 3.34

Query: Return protein stability index for the following variant: `L10N`
Reply: 2.71

Query: Return protein stability index for the following variant: `H3P`
Reply: 1.49

Query: Return protein stability index for the following variant: `V2S`
Reply: 2.4

Query: Return protein stability index for the following variant: `L11W`
Reply: 3.02

Query: Return protein stability index for the following variant: `D19V`
Reply: 3.32

Query: Return protein stability index for the following variant: `F14H`
Reply: 1.25
